// data source = the supplement of paper PMC10567573

Each entry below carries its recorded protein stability index.
B1: EPB41L3 (parent)
chain: FRFAPNHTKELEDKVIELHKSHRG

# Variants of: B1
# ASSAY_OVERVIEW: protein stability index of a GFP-peptide fusion (GPS, HEK-293T) (PSI 1-6); higher = more stable;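 further: lentivirally expressed fusions sorted by FACS into six bins by GFP to DsRed ratio, PSI derived from sequencing read proportions per bin multiplied by bin number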
# MEASUREMENT_CONTEXT: c terminus: a fixed tail appended

# SEQUENCE_TEXT, protein stability index
records = [
    ("FRFAPNHTKELEDKVIELIKSHRG [H19I]", 1.83),
    ("FRSAPNHTKELEDKVIELHKSHRG [F3S]", 4.07),
    ("FRFAPNHTKVLEDKVIELHKSHRG [E10V]", 1.73),
    ("FRFAPNHTKELEDKVIQLHKSHRG [E17Q]", 1.55),
    ("FRFAPNHTKELEDKVIESHKSHRG [L18S]", 2.51),
    ("FRFAPNHTKELEDKVIELHGSHRG [K20G]", 2.22),
    ("FRFAPNHTKELEDDVIELHKSHRG [K14D]", 2.32),
    ("FRFVPNHTKELEDKVIELHKSHRG [A4V]", 1.82),
    ("FRFAPNHTKELEDKVIELEKSHRG [H19E]", 2.72),
    ("CRFAPNHTKELEDKVIELHKSHRG [F1C]", 2.93),
    ("FRFAPNHTKELEDKVIELHKSHRC [G24C]", 1.36),
]
